Biological target: Sodium- and chloride-dependent betaine transporter (Homo sapiens)
Sequence (P48065 whole entry): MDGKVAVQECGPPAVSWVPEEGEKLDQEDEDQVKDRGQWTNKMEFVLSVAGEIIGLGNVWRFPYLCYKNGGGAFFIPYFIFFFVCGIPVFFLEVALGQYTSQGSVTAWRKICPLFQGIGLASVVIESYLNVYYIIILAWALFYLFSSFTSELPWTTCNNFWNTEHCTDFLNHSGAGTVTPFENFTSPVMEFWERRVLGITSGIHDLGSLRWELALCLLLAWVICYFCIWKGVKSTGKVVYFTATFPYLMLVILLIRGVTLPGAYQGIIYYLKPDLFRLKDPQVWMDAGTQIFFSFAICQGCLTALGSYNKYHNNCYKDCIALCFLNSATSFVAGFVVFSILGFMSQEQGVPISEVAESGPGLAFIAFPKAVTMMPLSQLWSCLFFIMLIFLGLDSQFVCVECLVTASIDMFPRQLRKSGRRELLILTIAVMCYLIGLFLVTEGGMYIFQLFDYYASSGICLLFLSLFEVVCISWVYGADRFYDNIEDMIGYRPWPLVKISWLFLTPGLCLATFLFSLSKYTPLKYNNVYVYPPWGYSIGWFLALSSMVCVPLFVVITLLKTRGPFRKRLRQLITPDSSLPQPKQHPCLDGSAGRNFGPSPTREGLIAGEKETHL
Assay: Inhibition of human BGT1 expressed in Flp-In CHO cells assessed as reduction in [3H]GABA uptake incubated for 3 mins by liquid scintillation counting method
Format: cell-based
Settings: read-out: IC50
Entries whose IC50 is below 10 µM take 1; entries at or above 10 µM take 0.

{"columns": ["Compound", "Assigned category"],
 "data": [
  ["C[C@@H]1SC(N)=N[C@@H]1CC(=O)O (relative stereo)", 0],
  ["O=C(O)C[C@@H]1CCNC1", 1],
  ["CC(C(=O)O)C1CSC(N)=N1 (stereo in doubt; l-10b)", 0],
  ["C[C@@H](C(=O)O)[C@@H]1CSC(N)=N1 (relative stereo)", 0],
  ["NC1=NC(CC(=O)O)CS1 (stereo unspecified)", 0],
  ["NC1=NC(CC(=O)O)CN1 (stereo unspecified)", 1],
  ["O=C(O)CC1CNC=N1 (stereo unspecified)", 1],
  ["CC(C(=O)O)C1CSC(N)=N1 (stereo in doubt; l-10a)", 0],
  ["C[C@H]1SC(N)=N[C@@H]1CC(=O)O (relative stereo)", 0],
  ["C[C@@H](C(=O)O)[C@H]1CSC(N)=N1 (relative stereo)", 0]
]}

====

Assay: Ionization constant, pKa2 of the compound at 1 mM by potentiometric titration assay
Format: physicochemical
Decide using pKa at 1000 µM: a value greater than or equal to 9 is Criterion met, a smaller one is Criterion not met.

{"columns": ["Compound", "Assigned category"],
 "data": [
  ["O=C(O)CC1CNC=N1 (stereo not given)", "Criterion met"],
  ["Nc1nc(CC(=O)O)cs1", "Criterion not met"],
  ["O=C(O)Cc1c[nH]cn1", "Criterion not met"],
  ["NC1=NC(CC(=O)O)CN1 (stereo not given)", "Criterion met"],
  ["NC1=NC(CC(=O)O)CS1 (stereo not given)", "Criterion not met"]
]}

====

Molecular target: Gamma-aminobutyric acid receptor subunit alpha-5/beta-2/gamma-2 (Homo sapiens) (UniProt P47870+P18507+P31644)
Test: Agonist activity at recombinant human GABA-A alpha5beta2gamma2S receptor transiently expressed in human tsA201 cells assessed as GABA-induced maximum response incubated for 30 mins and measured up to 90 secs by FMP dye based FLIPR membrane potential blue assay relative to GABA
Assay type: cell-based

{"columns": ["Compound", "Rmax / %"],
 "data": [
  ["C[C@H]1SC(N)=N[C@@H]1CC(=O)O (relative stereo)", 90],
  ["O=C(O)Cc1c[nH]cn1 [IMIDAZOLE ACETIC ACID]", 92],
  ["C[C@@H]1SC(N)=N[C@@H]1CC(=O)O (relative stereo)", 92],
  ["O=C(O)C[C@@H]1CCNC1", 86],
  ["C[C@@H](C(=O)O)[C@@H]1CSC(N)=N1 (relative stereo)", 81],
  ["O=C(O)C[C@H]1CCNC1", 99],
  ["CC1(CC(=O)O)CSC(N)=N1 (stereo not drawn)", 92],
  ["CC(C(=O)O)C1CSC(N)=N1 (stereo in doubt; l-10b)", 34],
  ["CC(C(=O)O)C1CSC(N)=N1 (stereo in doubt; l-10a)", 97],
  ["O=C(O)CC1CNC=N1 (stereo not drawn)", 88],
  ["NC1=NC(CC(=O)O)CN1 (stereo not drawn)", 90],
  ["C[C@@H](C(=O)O)[C@H]1CSC(N)=N1 (relative stereo)", 94],
  ["NC1=N[C@@H](CC(=O)O)CS1", 103]
]}

====

Target: Gamma-aminobutyric acid receptor subunit rho-1 (Homo sapiens)
Sequence (P24046 whole entry): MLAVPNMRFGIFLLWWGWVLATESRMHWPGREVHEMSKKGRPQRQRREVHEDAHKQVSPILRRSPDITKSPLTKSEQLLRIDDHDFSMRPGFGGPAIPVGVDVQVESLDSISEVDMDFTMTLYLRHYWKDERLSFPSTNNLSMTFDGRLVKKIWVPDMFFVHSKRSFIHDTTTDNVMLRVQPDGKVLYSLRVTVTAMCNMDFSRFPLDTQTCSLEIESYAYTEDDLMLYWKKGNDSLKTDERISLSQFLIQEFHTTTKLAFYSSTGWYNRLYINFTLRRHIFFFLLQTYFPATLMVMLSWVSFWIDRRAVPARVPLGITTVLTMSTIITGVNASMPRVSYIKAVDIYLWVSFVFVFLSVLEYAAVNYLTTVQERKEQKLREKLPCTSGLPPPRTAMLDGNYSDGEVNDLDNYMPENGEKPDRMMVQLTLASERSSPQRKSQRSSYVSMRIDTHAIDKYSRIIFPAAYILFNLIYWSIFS
Assay: Agonist activity at recombinant human GABA-A rho-1 receptor transiently expressed in human tsA201 cells incubated for 30 mins and measured up to 90 secs by FMP dye based FLIPR membrane potential blue assay
Format: cell-based
Details: read-out: EC50
pEC50: −log10 of the molar value.
Test readout: pEC50

{"columns": ["Compound", "Measured value"],
 "data": [
  ["CC(C(=O)O)C1CSC(N)=N1 (stereo in doubt; l-10b)", 5.92],
  ["NC1=NC(CC(=O)O)CS1 (stereo not given)", 5.19],
  ["O=C(O)CC1CNC=N1 (stereo not given)", 5.55],
  ["NC1=NC(CC(=O)O)CN1 (stereo not given)", 5.42],
  ["CC(C(=O)O)C1CSC(N)=N1 (stereo in doubt; l-10a)", 5.13],
  ["O=C(O)Cc1c[nH]cn1 [IMIDAZOLE ACETIC ACID]", 5.34],
  ["NC1=N[C@H](CC(=O)O)CS1", 5.27],
  ["C[C@@H](C(=O)O)[C@@H]1CSC(N)=N1 (relative stereo)", 5.80],
  ["O=C(O)C[C@H]1CCNC1", 5.08],
  ["NC1=N[C@@H](CC(=O)O)CS1", 5.43]
]}

====

Biological target: Gamma-aminobutyric acid receptor subunit alpha-4/beta-2/gamma-2 (Homo sapiens, UniProt P47870+P18507+P48169)
Test: Agonist activity at recombinant human GABA-A alpha4beta2gamma2S receptor transiently expressed in human tsA201 cells assessed as GABA-induced maximum response incubated for 30 mins and measured up to 90 secs by FMP dye based FLIPR membrane potential blue assay relative to GABA
Type: cell-based
The source made the active and inactive calls. No cut-off for these calls is given here.

{"columns": ["Molecule", "Rmax"],
 "data": [
  ["O=C(O)CC1CNC=N1 (stereo unspecified)", "74%"],
  ["C[C@@H](C(=O)O)[C@H]1CSC(N)=N1 (relative stereo)", "inactive"],
  ["O=C(O)C[C@H]1CCNC1", "94%"],
  ["Nc1nc(CC(=O)O)cs1", "inactive"],
  ["C[C@H]1SC(N)=N[C@@H]1CC(=O)O (relative stereo)", "inactive"],
  ["O=C(O)C[C@@H]1CCNC1", "inactive"],
  ["NC1=NC(CC(=O)O)CN1 (stereo unspecified)", "81%"],
  ["NC1=NC(CC(=O)O)CS1 (stereo unspecified)", "93%"],
  ["C[C@@H]1SC(N)=N[C@@H]1CC(=O)O (relative stereo)", "inactive"],
  ["CC1(CC(=O)O)CSC(N)=N1 (stereo unspecified)", "inactive"],
  ["NC1=N[C@H](CC(=O)O)CS1", "105%"],
  ["CC(C(=O)O)C1CSC(N)=N1 (stereo in doubt; l-10b)", "inactive"],
  ["NC1=N[C@@H](CC(=O)O)CS1", "53%"],
  ["C[C@@H](C(=O)O)[C@@H]1CSC(N)=N1 (relative stereo)", "inactive"],
  ["CC(C(=O)O)C1CSC(N)=N1 (stereo in doubt; l-10a)", "32%"],
  ["O=C(O)Cc1c[nH]cn1", "81%"]
]}

====

Target: GABA-A receptor; alpha-1/beta-2/gamma-2 (Homo sapiens, UniProt P14867+P18507+P47870)
Sequence (P14867 whole entry): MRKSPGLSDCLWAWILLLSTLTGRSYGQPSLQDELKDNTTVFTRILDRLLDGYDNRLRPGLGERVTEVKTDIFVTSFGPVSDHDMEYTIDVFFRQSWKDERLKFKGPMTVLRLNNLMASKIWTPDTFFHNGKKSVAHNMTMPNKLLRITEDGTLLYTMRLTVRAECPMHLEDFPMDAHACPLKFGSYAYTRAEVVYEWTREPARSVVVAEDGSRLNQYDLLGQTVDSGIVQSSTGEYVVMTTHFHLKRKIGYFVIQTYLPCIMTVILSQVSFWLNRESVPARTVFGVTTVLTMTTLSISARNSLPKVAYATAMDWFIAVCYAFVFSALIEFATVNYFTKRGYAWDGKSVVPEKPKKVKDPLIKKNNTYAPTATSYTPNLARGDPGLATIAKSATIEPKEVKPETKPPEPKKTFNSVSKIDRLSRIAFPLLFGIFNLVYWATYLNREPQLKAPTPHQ
Sequence (P47870 whole entry): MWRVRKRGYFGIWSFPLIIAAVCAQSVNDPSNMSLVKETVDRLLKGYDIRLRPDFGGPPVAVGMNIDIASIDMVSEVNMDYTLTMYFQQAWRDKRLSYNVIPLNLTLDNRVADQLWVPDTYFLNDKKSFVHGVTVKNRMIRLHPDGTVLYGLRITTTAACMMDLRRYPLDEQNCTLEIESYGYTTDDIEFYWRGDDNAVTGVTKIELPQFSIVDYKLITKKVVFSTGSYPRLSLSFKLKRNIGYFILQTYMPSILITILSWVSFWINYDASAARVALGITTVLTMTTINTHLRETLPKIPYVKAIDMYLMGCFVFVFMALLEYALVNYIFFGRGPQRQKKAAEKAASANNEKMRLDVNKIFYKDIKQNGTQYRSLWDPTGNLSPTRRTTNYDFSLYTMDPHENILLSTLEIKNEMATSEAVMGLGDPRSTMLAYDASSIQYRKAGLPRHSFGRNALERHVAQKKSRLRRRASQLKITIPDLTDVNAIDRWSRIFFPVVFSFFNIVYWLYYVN
Sequence (P18507 whole entry): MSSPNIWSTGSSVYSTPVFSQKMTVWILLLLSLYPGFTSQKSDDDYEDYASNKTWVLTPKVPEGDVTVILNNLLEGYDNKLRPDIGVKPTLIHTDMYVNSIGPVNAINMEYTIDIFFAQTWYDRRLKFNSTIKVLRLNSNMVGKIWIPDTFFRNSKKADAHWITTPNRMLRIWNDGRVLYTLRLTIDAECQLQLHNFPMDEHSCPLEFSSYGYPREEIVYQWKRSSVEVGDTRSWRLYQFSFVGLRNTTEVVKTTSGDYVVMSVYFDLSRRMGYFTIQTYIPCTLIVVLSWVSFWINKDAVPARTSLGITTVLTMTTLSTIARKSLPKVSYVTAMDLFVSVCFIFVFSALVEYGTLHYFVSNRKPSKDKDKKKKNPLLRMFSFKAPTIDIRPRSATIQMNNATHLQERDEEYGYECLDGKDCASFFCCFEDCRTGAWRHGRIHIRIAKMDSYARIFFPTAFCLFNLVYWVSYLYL
Assay: Agonist activity at recombinant human GABA-A alpha1beta2gamma2S receptor transiently expressed in human tsA201 cells incubated for 30 mins and measured up to 90 secs by FMP dye based FLIPR membrane potential blue assay
pEC50: −log10 of the molar value.
Respond with true (1) for pEC50 values of 5 and above, false (0) for values below.

{"columns": ["Molecule", "Assigned category"],
 "data": [
  ["C[C@@H](C(=O)O)[C@H]1CSC(N)=N1 (relative stereo)", "false (0)"],
  ["NC1=NC(CC(=O)O)CS1 (centres undefined)", "true (1)"],
  ["CC(C(=O)O)C1CSC(N)=N1 (stereo in doubt; l-10a)", "false (0)"],
  ["NC1=N[C@H](CC(=O)O)CS1", "true (1)"]
]}

====

Test: cells
Type: cell-based
Details: Homo sapiens, tsA201, 0.5 h; read-out: EC50

{"columns": ["Molecule", "Unit of measurement", "EC50"],
 "data": [
  ["NC1=NC(CC(=O)O)CN1 (configuration not stated)", "µM", 12],
  ["O=C(O)Cc1c[nH]cn1", "µM", 8.1],
  ["CC(C(=O)O)C1CSC(N)=N1 (stereo in doubt; l-10a)", "µM", 30],
  ["C[C@@H](C(=O)O)[C@H]1CSC(N)=N1 (relative stereo)", "µM", 17],
  ["NC1=N[C@@H](CC(=O)O)CS1", "µM", 2.4],
  ["NC1=NC(CC(=O)O)CS1 (configuration not stated)", "µM", 1.1],
  ["O=C(O)C[C@H]1CCNC1", "µM", 5.6],
  ["NC1=N[C@H](CC(=O)O)CS1", "µM", 0.37],
  ["O=C(O)CC1CNC=N1 (configuration not stated)", "µM", 5.4],
  ["C[C@@H]1SC(N)=N[C@@H]1CC(=O)O (relative stereo)", "µM", 54],
  ["CC1(CC(=O)O)CSC(N)=N1 (configuration not stated)", "µM", 26],
  ["C[C@@H](C(=O)O)[C@@H]1CSC(N)=N1 (relative stereo)", "µM", 36]
]}

Source of measurements: ChEMBL document CHEMBL4396887
